System: Klebsiella pneumonias (Kp)
test: MIC for Klebsiella pneumonias, nutrient agar
Format: cell-based, Klebsiella pneumonias ATCC 8308
measurement_parameters: pH 8.2, nutrient agar, 30° C., 48 hours, read-out: Minimum Inhibitory Concentration (MIC), Kp
value_type: MIC

INSERT INTO measurements (smiles_str, meas_value) VALUES
  ('N#CC1=C(C#N)Sc2c(cnn(-c3ccc(Br)cc3)c2=O)S1', '> 500 µg/mL'),
  ('Cc1ccc(-n2ncc3c(c2=O)SC(C#N)=C(C#N)S3)cc1', '> 500 µg/mL'),
  ('N#CC1=C(C#N)Sc2c(cnn(-c3cccc(Cl)c3)c2=O)S1', '> 500 µg/mL'),
  ('Cc1ccc(Cn2ncc3c(c2=O)SC(C#N)=C(C#N)S3)cc1', '> 500 µg/mL'),
  ('N#CC1=C(C#N)Sc2c(cnn(-c3ccc(Cl)cc3)c2=O)S1', '> 500 µg/mL'),
  ('N#CC1=C(C#N)Sc2c(cnn(-c3ccc(Cl)cc3Cl)c2=O)S1', '500 µg/mL'),
  ('N#CC1=C(C#N)Sc2c(cnn(-c3ccccc3)c2=O)S1', '> 500 µg/mL'),
  ('N#CC1=C(C#N)Sc2c(cnn(Cc3ccc(Cl)cc3)c2=O)S1', '> 500 µg/mL'),
  ('N#CC1=C(C#N)Sc2c(cnn(-c3ccc([N+](=O)[O-])cc3)c2=O)S1', '> 500 µg/mL'),
  ('N#CC1=C(C#N)Sc2c(cnn(Cc3ccccc3)c2=O)S1', '> 500 µg/mL'),
  ('N#CC1=C(C#N)Sc2c(cnn(-c3ccc(Cl)c(Cl)c3)c2=O)S1', '> 500 µg/mL');

Data provenance: patent US5488051A
